- System: OVCAR-4
- procedure summary: NCI tumour cell line growth inhibition, 48 h
Active and inactive are the calls of the source. Cut-off read from the data, not from the text of the source: active = GI50 up to about 1.1 µM and inactive = higher.
measured property: GI50

QUERY: GI50 for CC1=NN(c2nc(N)nc(C(C)Sc3cc(Cl)c(C)cc3S(N)(=O)=O)n2)C(C)(C)C1 (configuration not stated) ?
RESULT: > 10 µM (inactive)

QUERY: GI50 for COc1cc(OC)c2c(=O)c(OC)c(-c3ccc4c(c3)OCO4)oc2c1 ?
RESULT: > 100 µM (inactive)

QUERY: GI50 for O=C(NNC(=O)c1ccccc1S)c1ccccc1S [BIS(THIOSALICYL)HYDRAZIDE] ?
RESULT: 15.6 µM (inactive)

QUERY: GI50 for Cc1c(C(=O)/C=C/c2ccccc2[N+](=O)[O-])[n+]([O-])c2ccccc2[n+]1[O-] ?
RESULT: 9.64 µM (inactive)

QUERY: GI50 for C=CCCCCCCCCC(=O)O ?
RESULT: 132 µM (inactive)

QUERY: GI50 for O=C(N/C(=C\c1ccc(/C=C(\NC(=O)c2ccccc2)c2nc3cc([N+](=O)[O-])ccc3[nH]2)cc1)c1nc2cc([N+](=O)[O-])ccc2[nH]1)c1ccccc1 ?
RESULT: 39.5 µM (inactive)

QUERY: GI50 for CS(=O)(=O)OCCN(CCOS(C)(=O)=O)c1ccc(/C=N/N=c2/nc[nH]c3nc[nH]c23)cc1 ?
RESULT: 22.7 µM (inactive)

* * *

- Test system: SNB-19
- procedure summary: NCI tumour cell line growth inhibition, 48 h
The source made the active and inactive calls. No stated cut-off is given here; in the data, active = GI50 up to about 1.1 µM and inactive = higher.
measured property: GI50

QUERY: GI50 for COc1cc([C@@H]2c3cc(O)c(OC)cc3C=C(C(N)=O)[C@H]2C(N)=O)ccc1O ?
RESULT: > 100 µM (inactive)

QUERY: GI50 for COC(=O)CCc1cc(OC)c2c(c1)[C@H](C(=O)OC)[C@@H](c1ccc(O)c(OC)c1)O2 ?
RESULT: 51.9 µM (inactive)

QUERY: GI50 for CN(c1cn(C2CC[C@@H](CO)O2)c(=O)[nH]c1=O)C1CCCCC1 (stereo partly specified) ?
RESULT: > 100 µM (inactive)

QUERY: GI50 for CSc1ncc2c(n1)-c1ccccc1OC2N1CCCCC1 (stereo unspecified) ?
RESULT: 68.7 µM (inactive)

QUERY: GI50 for CC1=NN(C(=O)c2ccncc2)C(=O)C1/N=N/c1ccc(F)cc1 (stereo unspecified) ?
RESULT: > 100 µM (inactive)

QUERY: GI50 for CCOC(=O)NC(C(F)(F)F)(C(F)(F)F)P(=O)(OCC(C)C)OCC(C)C ?
RESULT: 28.8 µM (inactive)

* * *

- Test system: TK-10
- procedure summary: NCI tumour cell line growth inhibition, 48 h
Activity calls are given as the source filed them. No stated cut-off is given here; in the data, active = GI50 up to about 1.1 µM and inactive = higher.
Consider the following compounds; for each one, report its GI50.

QUERY: GI50 for O=[N+]([O-])c1ccc(N/N=C/CC(O)(C(F)(F)F)C(F)(F)F)c([N+](=O)[O-])c1 ?
RESULT: 5.79 µM (inactive)

QUERY: GI50 for C[C@@H]1CCC2[C@@H](C)[C@@H](OCCO[C@H]3OC4O[C@@]5(C)CCC6[C@H](C)CCC([C@H]3C)[C@@]46OO5)OC3O[C@@]4(C)CCC1[C@]32OO4 (some centres undefined) ?
RESULT: 0.206 µM (active)

QUERY: GI50 for COc1ccc2c(c1)CCCN1CCc3cc(OC)c(OC)cc3C21 (centres undefined) ?
RESULT: > 100 µM (inactive)

QUERY: GI50 for Cc1ccc(S(=O)(=O)NC(=O)NCCC(=O)O)cc1 ?
RESULT: > 100 µM (inactive)

* * *

- Tested on: OVCAR-8
- procedure summary: NCI tumour cell line growth inhibition, 48 h
Active and inactive are the calls of the source. Rule as the data show it: active = GI50 up to about 1.1 µM and inactive = higher.
Consider the following molecules; for each one, report its GI50.

QUERY: GI50 for Cc1cn(CC2=NCC(C)N2)c(=O)[nH]c1=O (stereo not given) ?
RESULT: > 100 µM (inactive)

QUERY: GI50 for CCN(CC)CCNc1ccc(CO)c2sc3ccccc3c(=O)c12 ?
RESULT: 6.37 µM (inactive)

QUERY: GI50 for C/C(CC(=O)Nc1ccc(C)c(C)c1)=N\NC(N)=O ?
RESULT: > 100 µM (inactive)

QUERY: GI50 for N/N=C(\C(=O)Nc1ccc(Cl)cc1Cl)C(c1cnc2ccccc2n1)[N+](=O)[O-] (stereo not given) ?
RESULT: > 100 µM (inactive)

QUERY: GI50 for COC(=O)C1(Cc2ccccc2)Cc2c(C)ccc(C)c2C1=O (stereo not given) ?
RESULT: 14.4 µM (inactive)

QUERY: GI50 for Cc1ccc(/N=N/c2c(O)ccc3ccccc23)cc1 ?
RESULT: > 100 µM (inactive)

QUERY: GI50 for OC1CC1Sc1ccccc1 (stereo not given) ?
RESULT: 28.4 µM (inactive)

QUERY: GI50 for Cc1ccc(NCCO)cc1 ?
RESULT: > 100 µM (inactive)

QUERY: GI50 for Nc1nc[n+](Cc2ccccc2CCO)c2[nH]cnc12 ?
RESULT: > 100 µM (inactive)

QUERY: GI50 for Cc1cn2cc(-c3ccncc3)nc2s1 ?
RESULT: > 100 µM (inactive)

* * *

- Test system: HOP-62
- procedure summary: NCI tumour cell line growth inhibition, 48 h
Active and inactive are the calls of the source. Cut-off read from the data, not from the text of the source: active = GI50 up to about 1.1 µM and inactive = higher.
measured property: GI50

QUERY: GI50 for CO/N=C(/C(=O)OC)c1ccccc1COc1cccc(C(F)(F)F)c1 ?
RESULT: 21.2 µM (inactive)

QUERY: GI50 for S=C1NC(c2ccccc2)=NC(Cc2ccccc2)(c2ccccc2)N1c1ccccc1 (centres undefined) ?
RESULT: 40.3 µM (inactive)

QUERY: GI50 for Cn1cc2ccccc2c1-c1nc(N)nc(F)n1 ?
RESULT: > 100 µM (inactive)

QUERY: GI50 for N#CC1=C(N)Oc2c(ccc3cccnc23)C1c1ccccc1 (centres undefined) ?
RESULT: 1.16 µM (inactive)

* * *

- Test system: HL-60
- procedure summary: NCI tumour cell line growth inhibition, 48 h
Active and inactive are the calls of the source. No stated cut-off is given here; in the data, active = GI50 up to about 1.1 µM and inactive = higher.
measured property: GI50

QUERY: GI50 for CN(c1cn(C2CC[C@@H](CO)O2)c(=O)[nH]c1=O)C1CCCCC1 (stereo partly specified) ?
RESULT: > 100 µM (inactive)

QUERY: GI50 for N#Cc1ccc(Nc2cnc3cc(N)ccc3n2)cc1 ?
RESULT: 14.9 µM (inactive)

QUERY: GI50 for O=C1Nc2ccccc2C1=Nc1ccc(S(=O)(=O)Nc2nccs2)cc1 ?
RESULT: > 100 µM (inactive)

QUERY: GI50 for CCN(/C=C1/C(=O)C(c2ccccc2)N(c2ccccc2)C1=O)CC (stereo unspecified) ?
RESULT: > 10 µM (inactive)

QUERY: GI50 for CC(=O)O/C=C\OC1CCCC1 ?
RESULT: > 100 µM (inactive)

QUERY: GI50 for CC1=C(O)C(=O)c2ccccc2C1=O ?
RESULT: 6.82 µM (inactive)

QUERY: GI50 for CCOP(=O)(OCC)C(N)c1ccc(Cl)cc1 (stereo unspecified) ?
RESULT: > 100 µM (inactive)

QUERY: GI50 for CCOC(=O)/C=C1\Nc2ccccc2C(c2ccccc2)=NC1OC(C)=O (stereo unspecified) ?
RESULT: 81.5 µM (inactive)

QUERY: GI50 for O=C(O)c1ccc(Nc2nc3cc(C(F)(F)F)ccc3nc2C(=O)O)cc1 ?
RESULT: > 100 µM (inactive)

QUERY: GI50 for COc1cc(OC)c2c(=O)c(OC)c(-c3ccc4c(c3)OCO4)oc2c1 ?
RESULT: 20.9 µM (inactive)

QUERY: GI50 for CCOc1ncn(-c2ccc(NC(=S)Nc3cnccn3)cc2)n1 ?
RESULT: > 10 µM (inactive)

* * *

- Test system: CAKI-1
- procedure summary: NCI tumour cell line growth inhibition, 48 h
Activity calls are given as the source filed them. Cut-off read from the data, not from the text of the source: active = GI50 up to about 1.1 µM and inactive = higher.
Field 'call' accepts yes (1) (active), no (0) (inactive)

QUERY: Entry CCOC(=O)/C=C1\Nc2ccccc2C(c2ccccc2)=NC1OC(C)=O (centres undefined) : call = ?
RESULT: no (0)

QUERY: Entry COc1ccc(CN2C(=O)C(=O)N(C)C2=O)c2ccccc12 : call = ?
RESULT: no (0)

QUERY: Entry c1ccc(P(=Nc2ccccc2N=P(c2ccccc2)(c2ccccc2)c2ccccc2)(c2ccccc2)c2ccccc2)cc1 : call = ?
RESULT: yes (1)

QUERY: Entry O=C1CSC(/C(=C\c2ccc(Cl)cc2)c2nc3ccccc3[nH]2)=N1 : call = ?
RESULT: no (0)

QUERY: Entry COc1ccc(/C=C2/C(=O)C(c3ccccc3)N(c3ccccc3)C2=O)cc1OC (centres undefined) : call = ?
RESULT: no (0)

QUERY: Entry CC(=O)c1c(O)nnc(-c2ccc(Cl)cc2)c1-c1ccc(Cl)cc1 : call = ?
RESULT: no (0)

QUERY: Entry O=[N+]([O-])c1ccc2sc(/C=N/c3ccc(O)cc3)cc2c1 : call = ?
RESULT: no (0)

QUERY: Entry NN/C(=N\S(=O)(=O)c1ccc(-c2ccccn2)s1)Nc1ccc(Cl)cc1 : call = ?
RESULT: no (0)

QUERY: Entry CC1=NN(c2ccc(S(=O)(=O)O)cc2)C2(C1)SCC(=O)N2c1nc2ccccc2s1 (centres undefined) : call = ?
RESULT: no (0)

QUERY: Entry CCOc1ccc(NC(=O)C(=O)C(C(=O)c2ccc3ccccc3c2)C2OC(=O)c3ccccc32)cc1 (centres undefined) : call = ?
RESULT: no (0)

QUERY: Entry Cc1cn2cc(-c3ccncc3)nc2s1 : call = ?
RESULT: no (0)

QUERY: Entry CCOC(=O)C1=C(C)N(NC(=O)Nc2ccccc2)C2(N)N(NC(=O)Nc3ccccc3)C(C)=C(C(=O)OCC)C12C#N (centres undefined) : call = ?
RESULT: no (0)

QUERY: Entry Cc1ncc([N+](=O)[O-])n1CCNS(=O)(=O)CCCn1ccnc1[N+](=O)[O-] : call = ?
RESULT: no (0)

QUERY: Entry COc1ccc(-c2cc3[nH]nc(N)c3c(=O)o2)cc1 : call = ?
RESULT: no (0)
